pIC50 data for Carnitine O-palmitoyltransferase 2, mitochondrial (Homo sapiens, UniProt P23786) follow.
pIC50: −log10 of the molar value.
Quantity kind: pIC50

Known pIC50 results, listed for orientation:
O=C([C@H]1CCCCN1C(=O)COc1ccccc1)N1Cc2ccc(C3CCOCC3)cc2C1 | 6.19
O=C(COc1ccccc1)N1CCCC[C@@H]1c1noc(-c2cc(Cl)nnc2O)n1 | 4.64

I: COc1ccc(Cl)cc1S(=O)(=O)N1C[C@H](C)c2ccc(C(=O)Nc3ccc(C(=O)O)cc3)cc21
II: O=C(COc1ccccc1)N1CCCC[C@@H]1c1noc(-c2cccc(-n3cc[nH]c3=O)c2)n1
III: O=C1COc2ccc(-c3noc([C@H]4CCCCN4C(=O)COc4ccccc4)n3)cc2N1
IV: COc1ccc(Cl)cc1S(=O)(=O)c1c[nH]c2ccc(C(=O)Nc3ccc(C(=O)O)cc3)cc12
Parameters: sort_field (pIC50), sort_dir (desc). The response must list the labels following the requested ordering.
I, IV, III, II
